System: HOP-92
MEASUREMENT_DESCRIPTION: NCI tumour cell line growth inhibition, 48 h
The source made the active and inactive calls. No stated cut-off is given here; in the data, active = GI50 up to about 1.1 µM and inactive = higher.
Recorded measurements of GI50, one per entry

>  <COMPOUND>
Cc1cn2cc(-c3ccncc3)nc2s1

>  <GI50>
> 100 µM (inactive)

$$$$
>  <COMPOUND>
COc1ccc(/C(C#N)=C2/O/C(=N/N)C(c3ccc(OC)c(OC)c3)C2=O)cc1OC (stereo not drawn)

>  <GI50>
> 100 µM (inactive)

$$$$
>  <COMPOUND>
COc1ccc2cc(NC(=O)N/N=C\c3ccc([N+](=O)[O-])cc3)ccc2c1

>  <GI50>
39.5 µM (inactive)

$$$$
>  <COMPOUND>
NN/C(=N\S(=O)(=O)c1ccc(-c2ccccn2)s1)Nc1ccc(Cl)cc1

>  <GI50>
68.5 µM (inactive)

$$$$
>  <COMPOUND>
O=C(c1ccccc1)c1ccc2[nH]c(-c3c(Cl)c(Cl)c(Cl)c(Cl)c3C(=O)N/N=C\C=C\c3ccccc3)nc2c1

>  <GI50>
41.1 µM (inactive)

$$$$
>  <COMPOUND>
COC1OC2=CCC3C(=O)NC(=O)C3C2[C@H](OCc2ccccc2)C1OCc1ccccc1 (stereo partly drawn)

>  <GI50>
1.63 µM (inactive)

$$$$
>  <COMPOUND>
O=[N+]([O-])c1ccc(-c2nn3c(C45CC6CC(CC(C6)C4)C5)nnc3s2)c(Cl)c1

>  <GI50>
> 100 µM (inactive)

$$$$
>  <COMPOUND>
COC(=O)C(I(OS(=O)(=O)c1ccc(C)cc1)c1ccccc1)=P(c1ccccc1)(c1ccccc1)c1ccccc1

>  <GI50>
14.7 µM (inactive)

$$$$
>  <COMPOUND>
CC(=O)NC(C)(C)C1CCC(C)=C(c2ccccc2)C1 (stereo not drawn)

>  <GI50>
19.5 µM (inactive)

$$$$
>  <COMPOUND>
Cc1ncc([N+](=O)[O-])n1CCNS(=O)(=O)CCCn1ccnc1[N+](=O)[O-]

>  <GI50>
> 100 µM (inactive)

$$$$
>  <COMPOUND>
COc1ccc(N2C(=O)C3c4[nH]c5ccc(OC)cc5c4C4CCC(C(C)C)CC4C3C2=O)cc1 (stereo not drawn)

>  <GI50>
> 54.2 µM (inactive)

$$$$
>  <COMPOUND>
Cc1cc2c(c(C(N)=O)c1C)-c1cc(Cl)cc(Cl)c1C2=O

>  <GI50>
> 100 µM (inactive)

$$$$
>  <COMPOUND>
C/C(=N\NC(N)=O)C(CN1CCOCC1)C(c1ccccc1)c1c(O)c2ccccc2oc1=O (stereo not drawn)

>  <GI50>
> 100 µM (inactive)

$$$$
>  <COMPOUND>
N/N=C(\C(=O)Nc1ccc(Cl)cc1Cl)C(c1cnc2ccccc2n1)[N+](=O)[O-] (stereo not drawn)

>  <GI50>
> 100 µM (inactive)

$$$$
>  <COMPOUND>
CCCCCCCCCCCCCP(=O)(O)NCC(N)=O

>  <GI50>
25.4 µM (inactive)

$$$$
>  <COMPOUND>
COC(=O)C(Cc1cc(OC)c(OC)c(OC)c1)C(=O)OC

>  <GI50>
> 320 µM (inactive)

$$$$
>  <COMPOUND>
COc1ccc(/C=C2/C(=O)C(c3ccccc3)N(c3ccccc3)C2=O)cc1OC (stereo not drawn)

>  <GI50>
> 10 µM (inactive)

$$$$
>  <COMPOUND>
CCN(CC)c1nnc(CCCCCCCCc2nnc(N(CC)CC)o2)o1

>  <GI50>
> 100 µM (inactive)

$$$$
>  <COMPOUND>
CCC1(N=[N+]=[N-])C(=O)Nc2cc(C)ccc2C1=O (stereo not drawn)

>  <GI50>
46.1 µM (inactive)

$$$$
>  <COMPOUND>
CN(C)c1ccc(C=c2c3cc(O)ccc3n3c2cc(-c2ccccc2)[n+]3C)cc1

>  <GI50>
1.13 µM (inactive)

$$$$
>  <COMPOUND>
CCOC(=O)C12CCSC1C1(C#N)C(C#N)=CC2(N=P(c2ccccc2)(c2ccccc2)c2ccccc2)n2c(=O)n(-c3ccccc3)c(=O)n21 (stereo not drawn)

>  <GI50>
12.4 µM (inactive)

$$$$
>  <COMPOUND>
O=C1N/C(=N/N=C/C(O)C(O)C(O)C(O)CO)N/C1=C\c1c[nH]c2ccccc12 (stereo not drawn)

>  <GI50>
> 100 µM (inactive)

$$$$
>  <COMPOUND>
CC(=O)c1cccc(NC(=O)C(=O)c2c(O)oc3ccccc3c2=O)c1

>  <GI50>
> 100 µM (inactive)

$$$$
>  <COMPOUND>
O=C(O)CNC(=O)C(CSC(=O)OCC1c2ccccc2-c2ccccc21)NC(=O)CCC(NC(=O)OCC1c2ccccc2-c2ccccc21)C(=O)O (stereo not drawn)

>  <GI50>
21.7 µM (inactive)

$$$$
>  <COMPOUND>
COc1ccc(-c2cc(-c3ccco3)c(C#N)c(=S)n2C2OC(COC(C)=O)C(OC(C)=O)C(OC(C)=O)C2OC(C)=O)cc1 (stereo not drawn)

>  <GI50>
4.02 µM (inactive)

$$$$
>  <COMPOUND>
C1CSC(Sc2nc(SC3=NCCS3)nc(SC3=NCCS3)n2)=N1

>  <GI50>
> 100 µM (inactive)

$$$$
>  <COMPOUND>
OCCN(CCO)c1ncnc2c1sc(=S)n2-c1ccccc1

>  <GI50>
> 100 µM (inactive)

$$$$
>  <COMPOUND>
CC(C)C1CC(CO)(CNc2cc(Cl)nc(N)n2)C1 (stereo not drawn)

>  <GI50>
45 µM (inactive)

$$$$
>  <COMPOUND>
CC1=NNC(=S)NCCCN2CCN(CCCNC(=S)NN=C(C)C=NNC(=S)NCCCN3CCN(CCCNC(=S)NN=C1)CC3)CC2

>  <GI50>
> 100 µM (inactive)

$$$$
>  <COMPOUND>
CCOC(=O)c1nc(SC)sc1NC(=O)c1ccc(OC)cc1

>  <GI50>
> 100 µM (inactive)

$$$$
>  <COMPOUND>
CC(=O)Nc1oc(C)c(C)c1S(=O)(=O)c1ccc(Cl)cc1

>  <GI50>
> 100 µM (inactive)

$$$$
>  <COMPOUND>
CCOC(=O)C1=C(C)N(NC(=O)Nc2ccccc2)C2(N)N(NC(=O)Nc3ccccc3)C(C)=C(C(=O)OCC)C12C#N (stereo not drawn)

>  <GI50>
20.2 µM (inactive)

$$$$
>  <COMPOUND>
CC1=NN(C(=O)c2ccncc2)C(=O)C1/N=N/c1ccc(F)cc1 (stereo not drawn)

>  <GI50>
51.6 µM (inactive)

$$$$
>  <COMPOUND>
CC(=O)N[C@@H](Cc1ccc(O)cn1)C(=O)NCc1ccc2c(c1)OCO2

>  <GI50>
> 100 µM (inactive)

$$$$
>  <COMPOUND>
COc1cc2nc(-c3ccc4ccccc4c3)nc(O)c2cc1OC

>  <GI50>
37.5 µM (inactive)

$$$$
>  <COMPOUND>
O=C(Cc1nc2ccc([N+](=O)[O-])cc2nc1O)C(=O)Nc1cc(Cl)c(Cl)cc1Cl

>  <GI50>
> 100 µM (inactive)

$$$$
>  <COMPOUND>
CC(=O)Nc1nc(Cl)cc(NCC2(CO)CCC2)n1

>  <GI50>
> 100 µM (inactive)

$$$$
>  <COMPOUND>
C=C1[C@H](OCC(C)C)[C@@H](O)[C@@H](OC(=O)c2cccnc2)C(C)(C)/C=C/[C@H](C)[C@H](OC(C)=O)[C@@]2(O)C[C@@](C)(OC(C)=O)[C@H](OC(=O)c3ccccc3)[C@@H]2[C@H]1OC(C)=O

>  <GI50>
0.723 µM (active)

$$$$
